These measurements were taken from patent US20200369772A1.

Biological target: T1, human PD-L2 (full-length, on cells) (human, UniProt Q9BQ51 20-273)
T1 chain: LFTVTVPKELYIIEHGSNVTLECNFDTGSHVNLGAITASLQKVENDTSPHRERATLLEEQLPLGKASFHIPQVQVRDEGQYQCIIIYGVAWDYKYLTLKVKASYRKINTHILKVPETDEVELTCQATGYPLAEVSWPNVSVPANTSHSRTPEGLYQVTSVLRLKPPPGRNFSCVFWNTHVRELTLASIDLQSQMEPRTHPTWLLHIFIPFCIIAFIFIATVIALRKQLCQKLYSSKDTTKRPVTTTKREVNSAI
Assay: FACS, CHO-K1 expressing human PD-L2
pEC50: −log10 of the molar value.

binder	pEC50
10A9-D2 (antibody, V domains shown, Both formats under this entry) VH: QVQLQESGPGLVKPSETLSLTCAVSGGSISSSYWWSWVRQPPGKGLEWVGEVFHVGVTNYNPSLKSRVTISVDKSKNQFSLKLTSVTAADTAVYYCARVTGTTGYYHGLDVWGQGTTVTVFS VL: DIQMTQSPSSLSASVGDRVTITCRASQGIRNDLGWYQQKPGKVPKRLIYAASSLQSGIPSRFSGSGSGTEFTLTISSLQPEDFATYYCLQHNNYPRTFGQGTKVEIK	9.60
19B3-B3 (antibody, V domains shown, Both formats under this entry) VH: QVQLVQSGAEVKKPGASVKVSCMASGYTFTNYAIHWVRQAPGQRLEWMGWINTGLGKPKYSQMFQDRVTITRDTSASTASMELSGLRSDDTAVYYCARVGWELYFDYWGQGTLVTVSS VL: DIQMTQSPSTLSASVGDRVTITCRASQSISSLLAWYQQKPGKAPKLLIYKASSLESGVPSRFSGSGSGTEFTLTISSLQPDDFATYFCQQYNSYWTFGQGTKVEIK	9.47
10D1-G1 (antibody, V domains shown, Both formats under this entry) VH: QVQLQESGPGLVKPSGTLSLTCAVSGGSISSSYWWSWVRQPPGKGLEWIGEIFHIGSTNYNPSLRSRVTISVVKSKNQFSLNLNSVTAADTAVYFCARVSGGYGYFSGMDVWGQGTTVTVSS VL: DIQMTQSPSSLSASVGDRVTITCRASQGIRNDLGWYQQKPGKAPKRLIYGASSLQSGVPSRFSGSGSGTEFTLTISSLQPEDFATYYCLQHNSYPRTFGQGTKVEIK	9.39
